Reported GI50 is given for each of the following molecules.
# System: HCT-15
# protocol.description: Cytotoxicity against human HCT15 cells after 48 hrs by sulforhodamine B assay
# Format: functional
# cond: HCT-15, 48 h

molecule	unit.label	censoring.operator	GI50
NCCCOc1c(Br)cc(CCN)cc1Br	µM	>	70
COC1=C(Br)C[C@]2(OC=C1Br)ON=C(C(=O)NCCCOc1c(Br)cc(CCN/C=C3/C(=O)CC(Cl)C3=O)cc1Br)[C@@H]2O (mixture of isomers)	µM	=	3.3
COC1=C(Br)C[C@@]2(OC=C1Br)ON=C(C(=O)NCCCOc1c(Br)cc(C(O)CNC=C3C(=O)C=CC3=O)cc1Br)[C@H]2O (some centres undefined) [19-HYDROXYPSAMMAPLYSINE E]	µM	=	3.8
N#CC(=O)NCCCOc1c(Br)cc(CCN)cc1Br	µM	>	70
